Target: human integrin αvβ3 purified protein (human, UniProt P06756 31-1048; P05106 27-788)
Sequence (P06756 31-1048, chain 1 of 2): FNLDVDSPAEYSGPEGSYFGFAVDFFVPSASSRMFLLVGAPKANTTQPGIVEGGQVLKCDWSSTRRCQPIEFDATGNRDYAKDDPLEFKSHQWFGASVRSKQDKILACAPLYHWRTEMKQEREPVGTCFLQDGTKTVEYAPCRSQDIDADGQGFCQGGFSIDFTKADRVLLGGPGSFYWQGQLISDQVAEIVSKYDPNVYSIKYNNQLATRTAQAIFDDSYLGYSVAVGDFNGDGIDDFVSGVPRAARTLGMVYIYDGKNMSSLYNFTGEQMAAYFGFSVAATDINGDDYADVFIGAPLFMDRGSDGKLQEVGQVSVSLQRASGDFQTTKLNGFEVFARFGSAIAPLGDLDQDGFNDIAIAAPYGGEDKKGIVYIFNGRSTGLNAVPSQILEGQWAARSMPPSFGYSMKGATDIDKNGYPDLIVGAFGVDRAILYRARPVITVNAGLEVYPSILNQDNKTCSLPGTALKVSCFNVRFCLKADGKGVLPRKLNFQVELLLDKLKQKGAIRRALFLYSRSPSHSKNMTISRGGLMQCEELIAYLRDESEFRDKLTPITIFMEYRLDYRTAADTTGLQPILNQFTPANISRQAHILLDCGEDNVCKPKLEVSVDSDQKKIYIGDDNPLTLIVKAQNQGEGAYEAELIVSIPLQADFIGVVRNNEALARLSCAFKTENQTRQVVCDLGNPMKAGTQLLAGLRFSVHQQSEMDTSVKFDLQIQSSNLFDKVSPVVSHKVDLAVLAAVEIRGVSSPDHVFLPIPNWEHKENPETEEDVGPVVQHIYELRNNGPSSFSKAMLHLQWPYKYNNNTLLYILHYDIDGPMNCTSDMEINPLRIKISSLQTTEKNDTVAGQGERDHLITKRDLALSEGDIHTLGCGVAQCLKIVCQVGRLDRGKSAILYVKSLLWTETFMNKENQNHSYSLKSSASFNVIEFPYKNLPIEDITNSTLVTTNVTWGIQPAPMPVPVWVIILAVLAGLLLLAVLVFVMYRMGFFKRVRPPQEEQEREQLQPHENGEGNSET
Sequence (P05106 27-788, chain 2 of 2): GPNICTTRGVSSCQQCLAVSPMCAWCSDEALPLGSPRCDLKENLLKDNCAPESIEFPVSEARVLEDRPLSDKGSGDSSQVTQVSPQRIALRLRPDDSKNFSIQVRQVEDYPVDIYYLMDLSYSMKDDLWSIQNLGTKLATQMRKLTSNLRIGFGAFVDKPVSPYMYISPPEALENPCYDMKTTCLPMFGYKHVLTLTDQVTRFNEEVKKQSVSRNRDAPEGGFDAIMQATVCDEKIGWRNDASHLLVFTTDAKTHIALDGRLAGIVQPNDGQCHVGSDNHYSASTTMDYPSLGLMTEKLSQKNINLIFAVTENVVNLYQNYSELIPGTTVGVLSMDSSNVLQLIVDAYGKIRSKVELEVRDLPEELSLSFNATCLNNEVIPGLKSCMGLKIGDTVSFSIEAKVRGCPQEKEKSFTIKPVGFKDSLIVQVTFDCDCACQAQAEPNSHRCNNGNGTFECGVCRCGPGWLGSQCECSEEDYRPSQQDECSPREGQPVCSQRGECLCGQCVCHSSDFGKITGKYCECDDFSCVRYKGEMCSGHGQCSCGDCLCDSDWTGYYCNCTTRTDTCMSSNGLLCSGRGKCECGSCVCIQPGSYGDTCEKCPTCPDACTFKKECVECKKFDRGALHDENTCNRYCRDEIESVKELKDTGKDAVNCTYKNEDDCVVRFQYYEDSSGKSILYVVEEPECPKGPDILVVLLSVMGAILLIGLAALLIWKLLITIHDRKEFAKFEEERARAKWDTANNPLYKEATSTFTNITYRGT
Assay: radioligand binding
Square brackets hold non-standard residues; d marks the D form.
property-measured: pKd
In simple prose, pKd is minus the logarithm base ten of a concentration in moles per litre.

Input: Supply measured pKd of cyclo(RGD[dY]K) (also: 125I label, site not given here) [125I-c(RGDyK)] in your reply.
Output: 9.40
